These records show pIC50 for ITK (Homo sapiens (Human)).
pIC50: −log10 of the molar value.

COMPOUND | INEQUALITY_OPERATOR | pIC50
C=CC(=O)N1CCC(C2CCNn3c2nc(-c2ccc(Oc4ccccc4)cc2)c3C(N)=O)CC1 (single isomer, unassigned) [1a (peak 1)] | = | 6.32
NC(=O)c1c(-c2ccc(Oc3ccccc3)cc2)nc2n1NCCC2C1CCN(C(=O)/C=C/C(F)(F)F)CC1 (single isomer, unassigned) [10a (peak 1)] | = | 5.69
NC(=O)c1c(-c2ccc(Oc3ccccc3)cc2)nc2n1NCCC2C1CCN(C(=O)/C=C/C(F)(F)F)CC1 (single isomer, unassigned) [10b (peak 2)] | < | 4.52
NC(=O)c1c(-c2ccc(Oc3ccccc3)cc2)nc2n1NCCC2C1CCN(C(=O)/C=C/C(F)(F)F)CC1 (stereo not drawn) [Example 10] | = | 4.97
C=CC(=O)Nc1ccccc1C1CCNn2c1nc(-c1ccc(Oc3ccccc3)cc1)c2C(N)=O (stereo not drawn) | = | 4.55
C=CC(=O)N1CCC(C2CCNn3c2nc(-c2ccc(Oc4ccccc4)cc2)c3C(N)=O)CC1 (single isomer, unassigned) [1b (peak 2)] | < | 4.52
